Target: HLA-A*29:02
Experiment: IEDB peptide-MHC binding, purified MHC/competitive/radioactivity; filed as Kd, often an IC50 or EC50 that approximates it; bounds were set here for any values at or beyond the usual limits of such assays
Details: source organism: Mammarenavirus choriomeningitidis
// reported Kd for each item listed

biosequence | target of assay | Kd
DTSNTGRAEL | HLA-A*29:02 | ≥ 71.4 µM
EGFMRKQKY | HLA-A*29:02 | ≥ 78.9 µM

----------
// reported pKd for each item listed
Target: HLA-A*03:01
Experiment: IEDB peptide-MHC binding, purified MHC/competitive/fluorescence; filed as Kd, often an IC50 or EC50 that approximates it; bounds were set here for any values at or beyond the usual limits of such assays
Conditions: source organism: Cryptosporidium parvum Iowa II
pKd: −log10 of the molar value.

biosequence | target of assay | inequality symbol | pKd
KLYLRPWWH | HLA-A*03:01 | = | 8.36
ERTDLFFPV | HLA-A*03:01 | ≤ | 4.70

----------
Target: HLA-A*69:01
Assay: IEDB peptide-MHC binding, purified MHC/direct/fluorescence; filed as Kd, often an IC50 or EC50 that approximates it; bounds were set here for any values at or beyond the usual limits of such assays
Conditions: source organism: Pseudomonas fluorescens
pKd: −log10 of the molar value.
measured metric: pKd

biosequence | target of assay | measured metric | meas value
FVSVYFSDY | HLA-A*69:01 | pKd | ≤ 4.70

----------
Biological target: HLA-B*27:05
Assay: IEDB peptide-MHC binding, purified MHC/direct/fluorescence; filed as Kd, often an IC50 or EC50 that approximates it; bounds were set here for any values at or beyond the usual limits of such assays
Conditions: source organism: Corynebacterium efficiens

biosequence | Kd
KLGDQFGRK | ≥ 20 µM

----------
Target: HLA-B*53:01
Assay: IEDB peptide-MHC binding, purified MHC/competitive/radioactivity; filed as Kd, often an IC50 or EC50 that approximates it; bounds were set here for any values at or beyond the usual limits of such assays
Details: source organism: SARS coronavirus Tor2
// reported Kd for each item listed

biosequence | Kd
MPASWVMRI | 1.24 nM
KPNTWCLRCL | 2440 nM
APHGVVFLHV | 749 nM
KPPISFPLCA | ≥ 31500 nM

----------
Molecular target: HLA-B*15:17
Experiment: IEDB peptide-MHC binding, purified MHC/competitive/fluorescence; filed as Kd, often an IC50 or EC50 that approximates it; bounds were set here for any values at or beyond the usual limits of such assays
Conditions: source organism: Reston ebolavirus
pKd: −log10 of the molar value.
measured metric: pKd

biosequence | target of assay | meas value
WFQRIPLQW | HLA-B*15:17 | ≤ 4.70

----------
Molecular target: HLA-B*27:05
Assay: IEDB peptide-MHC binding, purified MHC/direct/fluorescence; filed as Kd, often an IC50 or EC50 that approximates it; bounds were set here for any values at or beyond the usual limits of such assays
Details: source organism: Mycobacterium tuberculosis
measured metric: Kd

biosequence | meas value
QQDTNSAGL | ≥ 20 µM
RVEESRARL | ≥ 20 µM

----------
Molecular target: HLA-B*15:17
Assay: IEDB peptide-MHC binding, purified MHC/direct/fluorescence; filed as Kd, often an IC50 or EC50 that approximates it; bounds were set here for any values at or beyond the usual limits of such assays
Details: source organism: Listeria monocytogenes

biosequence | value units | Kd
WTRPRYIEI | nM | 270

----------
Target: HLA-B*15:01
Experiment: IEDB peptide-MHC binding, purified MHC/direct/fluorescence; filed as Kd, often an IC50 or EC50 that approximates it; bounds were set here for any values at or beyond the usual limits of such assays
Details: source organism: Coxiella burnetii
pKd: −log10 of the molar value.
measured metric: pKd

biosequence | target of assay | measured metric | meas value
IIGLLKIFR | HLA-B*15:01 | pKd | ≤ 4.70
HEGDIVPLF | HLA-B*15:01 | pKd | 4.82
VPPESVEAA | HLA-B*15:01 | pKd | ≤ 4.70

----------
Target: HLA-B*08:01
Assay: IEDB peptide-MHC binding, purified MHC/direct/fluorescence; filed as Kd, often an IC50 or EC50 that approximates it; bounds were set here for any values at or beyond the usual limits of such assays
Details: source organism: Coxiella burnetii

biosequence | target of assay | Kd
VPPESVEAA | HLA-B*08:01 | ≥ 20 µM

----------
Biological target: HLA-A*26:03
Assay: IEDB peptide-MHC binding, purified MHC/direct/fluorescence; filed as Kd, often an IC50 or EC50 that approximates it; bounds were set here for any values at or beyond the usual limits of such assays
Details: source organism: Brucella suis 1330
pKd: −log10 of the molar value.

biosequence | target of assay | pKd
RFRCVGPAP | HLA-A*26:03 | ≤ 4.70

----------
Target: HLA-B*35:01
Test: IEDB peptide-MHC binding, purified MHC/competitive/fluorescence; filed as Kd, often an IC50 or EC50 that approximates it; bounds were set here for any values at or beyond the usual limits of such assays
Settings: source organism: Orthohantavirus andesense
pKd: −log10 of the molar value.

biosequence | pKd
DAVEDFLAF | ≥ 10.00

----------
Biological target: HLA-B*27:05
Assay: IEDB peptide-MHC binding, purified MHC/direct/fluorescence; filed as Kd, often an IC50 or EC50 that approximates it; bounds were set here for any values at or beyond the usual limits of such assays
Conditions: source organism: Brucella abortus 2308
pKd: −log10 of the molar value.

biosequence | pKd
IEVKFHPIL | ≤ 4.70

----------
Target: HLA-B*51:01
Assay: IEDB peptide-MHC binding, purified MHC/direct/fluorescence; filed as Kd, often an IC50 or EC50 that approximates it; bounds were set here for any values at or beyond the usual limits of such assays
Details: source organism: Yersinia pestis CA88-4125
pKd: −log10 of the molar value.
measured metric: pKd

biosequence | measured metric | meas value
LPEAYQWHI | pKd | 6.32

----------
Biological target: HLA-B*08:01
Assay: IEDB peptide-MHC binding, purified MHC/competitive/fluorescence; filed as Kd, often an IC50 or EC50 that approximates it; bounds were set here for any values at or beyond the usual limits of such assays
Conditions: source organism: Vaccinia virus WR
pKd: −log10 of the molar value.

biosequence | pKd
EYYFRNEVF | ≤ 4.70

----------
// reported Kd for each item listed
Molecular target: HLA-B*35:01
Experiment: IEDB peptide-MHC binding, purified MHC/competitive/radioactivity; filed as Kd, often an IC50 or EC50 that approximates it; bounds were set here for any values at or beyond the usual limits of such assays
Details: source organism: Vaccinia virus WR

biosequence | value units | inequality symbol | Kd
FPSTQRDYY | µM | = | 0.00108
YPTNDIPSLF | µM | = | 0.00863
APGSPTNLEF | µM | = | 0.85
ISIIVLFQR | µM | ≥ | 43.4
WPNNCGWKIY | µM | = | 0.593
TPNYMKLLVY | µM | = | 0.0481
IPYLRNYMVI | µM | ≥ | 43.9
FPGLYGASI | µM | = | 0.506
EPISILDRI | µM | = | 4.81
IPKFKVTGSY | µM | = | 1.23
KQYIVATLMK | µM | = | 18.7

----------
Target: HLA-A*02:03
Assay: IEDB peptide-MHC binding, purified MHC/competitive/radioactivity; filed as Kd, often an IC50 or EC50 that approximates it; bounds were set here for any values at or beyond the usual limits of such assays
Conditions: source organism: Dengue virus 1 Brazil/97-11/1997
// reported Kd for each item listed

biosequence | target of assay | Kd, nM
TLTAAVLMLV | HLA-A*02:03 | 3.45
LLMLLPTAL | HLA-A*02:03 | 31

----------
Molecular target: HLA-A*23:01
Test: IEDB peptide-MHC binding, purified MHC/competitive/radioactivity; filed as Kd, often an IC50 or EC50 that approximates it; bounds were set here for any values at or beyond the usual limits of such assays
Conditions: source organism: SARS coronavirus Tor2

biosequence | value units | inequality symbol | Kd
LVSTQEFRY | µM | = | 10.9
CADGTRHTY | µM | ≥ | 67.6
MWSFNPETNI | µM | = | 0.407

----------
Target: HLA-B*57:01
Test: IEDB peptide-MHC binding, purified MHC/competitive/fluorescence; filed as Kd, often an IC50 or EC50 that approximates it; bounds were set here for any values at or beyond the usual limits of such assays
Conditions: source organism: Burkholderia vietnamiensis G4

biosequence | target of assay | Kd
PLFKRGWRL | HLA-B*57:01 | ≥ 20 µM

----------
Molecular target: HLA-B*15:01
Assay: IEDB peptide-MHC binding, purified MHC/direct/fluorescence; filed as Kd, often an IC50 or EC50 that approximates it; bounds were set here for any values at or beyond the usual limits of such assays
Conditions: source organism: Vibrio vulnificus
// reported Kd for each item listed

biosequence | Kd
HLAGFIHAC | 2.28 µM
GSEVPGFCH | ≥ 20 µM
NGYRWQHQI | ≥ 20 µM
